The measurements presented in this section are drawn from patent US20240325555A1.

# experimental-system: cynomolgus LIV-1 (cynomolgus, UniProt A0A2K5WH46 30-741)
# Sequence (A0A2K5WH46 entry or part of it): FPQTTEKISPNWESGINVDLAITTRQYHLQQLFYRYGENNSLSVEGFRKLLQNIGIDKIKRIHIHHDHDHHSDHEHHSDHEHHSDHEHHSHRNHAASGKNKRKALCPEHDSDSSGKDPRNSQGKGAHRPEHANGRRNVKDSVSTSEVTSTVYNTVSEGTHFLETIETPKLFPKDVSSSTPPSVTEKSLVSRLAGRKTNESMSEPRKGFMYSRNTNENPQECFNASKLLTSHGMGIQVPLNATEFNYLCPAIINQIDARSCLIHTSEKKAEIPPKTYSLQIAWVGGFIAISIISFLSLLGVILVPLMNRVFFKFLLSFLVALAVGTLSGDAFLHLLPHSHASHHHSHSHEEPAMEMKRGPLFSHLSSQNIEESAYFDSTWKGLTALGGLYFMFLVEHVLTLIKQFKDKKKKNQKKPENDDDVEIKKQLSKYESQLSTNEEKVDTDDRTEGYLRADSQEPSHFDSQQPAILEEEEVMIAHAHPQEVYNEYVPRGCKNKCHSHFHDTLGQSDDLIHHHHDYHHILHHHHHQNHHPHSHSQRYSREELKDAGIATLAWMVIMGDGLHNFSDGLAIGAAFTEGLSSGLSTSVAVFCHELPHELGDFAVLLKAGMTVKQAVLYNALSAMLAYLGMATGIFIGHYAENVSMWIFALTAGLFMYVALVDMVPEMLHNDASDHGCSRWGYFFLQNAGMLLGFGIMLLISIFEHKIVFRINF
# assay-comment: FACS, HEK293/Cyno_LIV-1 cells
endpoint-name: Top (MFI)
# value in MFI; strip the unit string

124H4D11.p2.z4 (antibody, V domains shown) VH: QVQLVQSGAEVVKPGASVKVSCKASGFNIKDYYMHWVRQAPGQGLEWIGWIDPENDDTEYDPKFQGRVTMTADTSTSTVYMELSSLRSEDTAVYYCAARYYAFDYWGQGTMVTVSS VL: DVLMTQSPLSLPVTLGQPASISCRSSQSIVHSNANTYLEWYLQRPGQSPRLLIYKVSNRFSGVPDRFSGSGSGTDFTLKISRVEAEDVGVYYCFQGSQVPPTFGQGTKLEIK :: 1420
5D6B10 (antibody, V domains shown, Tested as chimeric antibody) VH: QVQLKQSGPGLVQPSQSLSITCTVSGFSLTTYGIHWVRQSPGKGLEWLGVIWTGGTTDYNAAFISRLSISKDNSKSQVFFKMNSLQANDTAIYYCARGPSSYWGQGTLVTVSA VL: DIVMTQSQKFMSTSVGDRVSVTCKASQNVDTNVVWYQQKPGQSPKALIHSASYRYSGVPDRFTGSGSGTDFTLTISNVQSEDLAEYFCQQYNNYPWTFGGGTKLEIK :: 13900
290F10G10 (antibody, V domains shown, Tested as chimeric antibody) VH: IQLQQSGAELARPGASVKLSCKASGYTFTSYWIHWVKERPGQGLEWIGTIYPGDGDTRSTQKFKDKATVTAEKSSSTVYMQLSSLASEDSAVYYCTRSLIHDDYDKYYFDYWGQGTTLTVSS VL: DIQMTQSPSSLSASLGGKVTITCKARQDINKYIAWYQHKPGKGPRLLIHYTSILQPGIPSRFSGSGSGRDYSFSISNLEPEDIATYYCLQYDYFFTFGSGTKLEIK :: 1560

Turning now to a further binder:
Request the reported Top (MFI) associated with 5D6B10.Z7 (antibody, V domains shown) VH: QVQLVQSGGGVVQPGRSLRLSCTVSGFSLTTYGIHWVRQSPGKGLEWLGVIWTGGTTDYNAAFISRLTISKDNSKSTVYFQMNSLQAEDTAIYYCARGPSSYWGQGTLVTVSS VL: EIVMTQSPATLSVSPGERATLSCKASQNVDTNVVWYQQKPGQSPRALIYSASYRYSGVPARFSGSGSGTEFTLTISSLQSEDFAVYFCQQYNNYPWTFGQGTKVEIK
13900
